assay: AUC (last) in Sprague-Dawley rat at 10 mg/kg, po measured for 24 hrs by LC-MS/MS analysis; assay type: ADME, organism-based; conditions: in vivo
measured attribute: AUC(0-t) at 24 h (ng·h/mL)

>>> df
                               entry_smiles  measured_attribute  value_reported
0  C[C@@H](Oc1ccc2[nH]nc(-c3ccc(N4CC5(C4)CN(S(C)(=O)=O)C5)nc3)c2c1)c1c(Cl)cncc1Cl    AUC(0-t) at 24 h            3360

---

experiment: Inhibition of recombinant BCR/FGFR2 (unknown origin) transduced in mouse BaF3 cells incubated for 48 hrs by Cell Titer Glo assay; type: cell-based; conditions: BaF3, 48 h
measured attribute: IC50

>>> print(df.to_string())
                               entry_smiles  measured_attribute  value_reported
0  C[C@@H](Oc1ccc2[nH]nc(-c3ccc(N4CC5(CCS(=O)(=O)C5)C4)nc3)c2c1)c1c(Cl)cncc1Cl                IC50          111 nM
1  C[C@@H](Oc1ccc2[nH]nc(-c3ccc(N4CC5(CCS(=O)(=O)CC5)C4)nc3)c2c1)c1c(Cl)cncc1Cl                IC50          132 nM
2  C[C@@H](Oc1ccc2[nH]nc(-c3ccc(N4CCN(C(=O)N5CCN(C)CC5)CC4)nc3)c2c1)c1c(Cl)cncc1Cl                IC50          114 nM
3  C[C@@H](Oc1ccc2[nH]nc(-c3ccc(N4CC5(CCN(S(C)(=O)=O)CC5)C4)nc3)c2c1)c1c(Cl)cncc1Cl                IC50          127 nM
4  C[C@@H](Oc1ccc2[nH]nc(-c3cnc(N4CC5(C4)CN(S(C)(=O)=O)C5)cn3)c2c1)c1c(Cl)cncc1Cl                IC50           97 nM
5  Cc1cncc(C)c1[C@@H](C)Oc1ccc2[nH]nc(-c3ccc(N4CC5(C4)CN(S(C)(=O)=O)C5)nc3)c2c1                IC50           86 nM
